- assay overview: protease stability score; higher = more stable; yeast display proteolysis, trypsin and chymotrypsin;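 further: log10 excess protease needed over predicted unfolded state with 0 meaning unfolded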
Reported protease stability score values for a set of sequences
Please state the value as a number alone, without comment.

DDRRLAQEMANQFRKIRETGNPDDIVQLADPNAKYRIGERDVHGKEEIKKDFQEEKDRVDRIEVEIDSIEVKNGEVRVTFILRRTHNGRRESRTLVMNARVDNGRLTMESATEK | -0.205

Input: Identify protease stability score associated with the sequence `DERRLEEVARHIRRGDKKHLNRLADPNAQLQYGNQRYTGRERVQTFWRQMITRADHLRVQSVTIHNGRIDAKFEMRVNGNKVEYRLKVQIHNGKAQNVQVNYRDEEDEKRMEENLG`
Output: 0.183

---

- assay overview: protease stability score; higher = more stable; yeast display proteolysis, trypsin and chymotrypsin;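 further: log10 excess protease needed over predicted unfolded state with 0 meaning unfolded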
Returns yes (1) if the recorded protease stability score is greater than or equal to 0.03, and no (0) otherwise.

DEKDAREWVKDREQNDFDQISRMMDENVKLEYGNKEVHGRERVNTELKKEEETADHVSIDRVEVEEGRAVIDAVVRFNGKDFKMVVTVSMENGKVKYIRDRFTDEQLEEDFVKQFN | yes (1)
DHEDAEKMKDLLTAEQQNDPDKVKEQADPNAQFRIGDQKVHGRNQYARIVKTLMERADVHILRIDNKDHNGQVHVSIDRVIDYNGRPKRDTETATARFHNGRLKELHIQFDPKKYQELKK | no (0)
DHERILQELLDRAVKMLNTGNEEHARKLAPPHARMVVGDKTIHGMENIAHEWQKVQDRVDHVEARVHSMSVDGDKFVVIVEVTLDINGRKQTQVVTFIAVKNNGQVYVKQINIS | no (0)
DEEEDEKFVEFLKNVERGNEDKLRELVPPDAKNQVGDTVVEGRDEWLKKLTSELKKSRVTYNVKSVSASNGRMSLVVDVTVDENGRPQKRDLRIDATVHNGKWQKVHLKFDS | yes (1)
DESVLEMAERIIEAFNNGDPERAVNQADPNVKITVGDKSITGREDLRRELEKQLKEQEQHIQVLRVTDHNGQAQMDIRMTSEKNGNPDHRRATVQFHATNGKLQTMRVDQRG | no (0)

Input: Reported protease stability score reaches at least 0.03 for `DEEIVELIKKVLEAIEEGDETRLKKLFDPNAEFEIGDKKLHGMENAAKEWRKQRQQMEIRIKSVHFEVRGERVIVKFKVEYDHNGRPSTMTVHIVALAHNGKMTYFSQKVTQ` ?
Output: yes (1)

---

- assay overview: protease stability score; higher = more stable; yeast display proteolysis, trypsin and chymotrypsin;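 further: log10 excess protease needed over predicted unfolded state with 0 meaning unfolded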
Reported protease stability score values for a set of sequences

Worked examples follow.
DEEFLRLIEEFWRAVKQNDEERLKHLLDENAKVKVGDKRLRGHEQVAKSIVDDQREMRIEMRIHKVEVDGNKVDVTYVVVFNVNGRPVSDSVRVIFRAKNGRIQMIEVRVDPDSAREQKS | 1.37
DEEAEKELRKMFQNENKGNPNEVMKQFDKHARVKVGEKEIRGRHQVHNYVDHVRKEMRRQIDSMSLEVHGNKLIVHITYVADINGHPVRVQVQYIIQFHNGKIKEVKVKIDEDEKRRMDQ | 0.385
DETQRAEEFFKRMQKLAHTNNFEHLANMADPNANFRVGDKTFHGRRDMIRQQKQIRERVDHVEYDVRRIDVHGNELDIKLEVNYDVNGKKDTRTVHYNAENNNGDVVISRVEYK | 0.127

Input: Identify protease stability score associated with the sequence `DEDKLREVAEEMNKGDPQTLADNADKDARLRVGDREWHGREDVEKFNNQWRREVDHVDIERVTVSPNRVEAVYVVTVNGKRIHAKFEAKVHDGRIKEMTVSVTNPEQQKDLERQVD`
Output: -0.1
